Value source: ChEMBL document CHEMBL3217575

species: Bos taurus; test: Inhibition of purified calf kidney ALR1 at 0.6 mM preincubated for 10 mins by UV spectrophotometry; assay type: tissue-based
inhibition reference
API: value field is a number in %; no unit string.

Some solved cases for reference:
COC(=O)/C=C1/S/C(=N\C(=O)c2ccccc2Br)N(c2cccc(Cl)c2Cl)C1=O :: 51.4
COC(=O)/C=C1/S/C(=N\C(=O)c2ccccc2)N(c2cccc3ccccc23)C1=O :: 44.3
COC(=O)/C=C1/S/C(=N\C(=O)c2cccc(C)c2)N(c2ccccc2OC)C1=O :: 32.4

In: Reported inhibition for `COC(=O)/C=C1/S/C(=N\C(=O)c2ccccc2Br)N(c2ccc(Cl)cc2Cl)C1=O` : what is it?
Out: 72.7

In: Would you mind doing `COC(=O)/C=C1/S/C(=N\C(=O)c2ccccc2Cl)N(c2ccccc2)C1=O` as well?
Out: 19.2

----------
species: Bos taurus; test: Inhibition of purified calf kidney ALR1 at 0.6 mM preincubated for 10 mins by UV spectrophotometry; assay type: tissue-based
Measure: inhibition (%)
API: value field is a number in %; no unit string.

Some solved cases for reference:
COC(=O)/C=C1/S/C(=N\C(=O)c2cccc(C)c2)N(c2cccc(Cl)c2)C1=O :: 42.6
COC(=O)/C=C1/S/C(=N\C(=O)c2ccccc2C)N(c2cccc(OC)c2)C1=O :: 27.8
COC(=O)/C=C1/S/C(=N\C(=O)c2ccc([N+](=O)[O-])cc2)N(c2ccc(F)c(Cl)c2)C1=O :: 38.4
COC(=O)/C=C1/S/C(=N\C(=O)c2ccc(Cl)cc2)N(c2cccc(Cl)c2Cl)C1=O :: 15.3
COC(=O)/C=C1/S/C(=N\C(=O)c2ccc3ccccc3c2)N(c2ccccc2)C1=O :: 49.1

In: Reported inhibition for `COC(=O)/C=C1/S/C(=N\C(=O)c2ccccc2)N(c2ccccc2OC)C1=O` : what is it?
Out: 41.2

In: Would you mind doing `COC(=O)/C=C1/S/C(=N\C(=O)c2ccc(C)cc2)N(c2cccc(Cl)c2)C1=O` as well?
Out: 43.5

In: Would you mind doing `COC(=O)/C=C1/S/C(=N\C(=O)c2ccc([N+](=O)[O-])cc2)N(c2ccccc2F)C1=O` as well?
Out: 49.5

In: Would you mind doing `COC(=O)/C=C1/S/C(=N\C(=O)c2cccc(C)c2)N(c2ccccc2)C1=O` as well?
Out: 31.5

----------
experiment: Inhibition of purified calf eye lens ALR2 preincubated for 10 mins by UV spectrophotometry; assay type: tissue-based, Bos taurus, Lens of camera-type eye
pIC50 reference
Quick note: pIC50 values are minus log10 of concentrations in mol/L.

Some solved cases for reference:
COC(=O)/C=C1/S/C(=N\C(=O)c2cccc(C)c2)N(c2ccccc2)C1=O :: 5.01
COC(=O)/C=C1/S/C(=N\C(=O)c2ccccc2Br)N(c2ccc(Cl)cc2Cl)C1=O :: 5.60
COC(=O)/C=C1/S/C(=N\C(=O)c2ccc([N+](=O)[O-])cc2)N(c2ccccc2F)C1=O :: 4.44

In: Reported pIC50 for `COC(=O)/C=C1/S/C(=N\C(=O)c2ccccc2Br)N(c2cccc(Cl)c2Cl)C1=O` : what is it?
Out: 5.03

In: Would you mind doing `COC(=O)/C=C1/S/C(=N\C(=O)c2ccc(Cl)cc2)N(c2cccc(Cl)c2Cl)C1=O` as well?
Out: 4.91

In: Would you mind doing `COC(=O)/C=C1/S/C(=N\C(=O)c2ccc3ccccc3c2)N(c2ccccc2)C1=O` as well?
Out: 5.29

In: Would you mind doing `COC(=O)/C=C1/S/C(=N\C(=O)c2ccccc2)N(c2ccccc2OC)C1=O` as well?
Out: 5.55

In: Would you mind doing O=C1NC(=O)[C@@]2(CCOc3ccc(F)cc32)N1 [SORBINIL] as well?
Out: 5.50

In: Would you mind doing `COC(=O)/C=C1/S/C(=N\C(=O)c2ccccc2Cl)N(c2ccccc2)C1=O` as well?
Out: 5.28
